The values you see were collected from BigSolDB 2.1.

conditions: in cyclopentanone, 319.15 K
Endpoint Label: solubility (mole fraction)
Response field accepts a number only; no unit should be typed.

Q. Dear colleague, I am looking for the recorded solubility (mole fraction) of the following compound: Cc1ccccc1S(N)(=O)=O
A. 0.175

----------
details: in n-propanol, 273.15 K
Endpoint Label: solubility (mole fraction)
Response field accepts a number only; no unit should be typed.

Q. Dear colleague, I am looking for the recorded solubility (mole fraction) of the following molecule: Cc1ccccc1S(N)(=O)=O
A. 0.00418

----------
conditions: in acetonitrile, 283.95 K
Endpoint Label: solubility (mole fraction)
Response field accepts a number only; no unit should be typed.

Q. Dear colleague, I am looking for the recorded solubility (mole fraction) of the following molecule: Cc1ccccc1S(N)(=O)=O
A. 0.022
